# measurement-setup: in PEG-400, 308.15 K
observation-type: solubility (mole fraction)
Answers are plain numbers.

Item under review: CN(Cc1ccccc1)CN1C(=O)C(=NNC(=O)c2ccccc2OCc2ccccc2)c2ccccc21 . Reported solubility (mole fraction)?
0.00887

----------
# measurement-setup: in ethanol, 313.15 K
observation-type: solubility (mole fraction)
Numbers only.

Item under review: CN(Cc1ccccc1)CN1C(=O)C(=NNC(=O)c2ccccc2OCc2ccccc2)c2ccccc21 . Reported solubility (mole fraction)?
0.000832

----------
# measurement-setup: in water, 303.15 K
observation-type: solubility (mole fraction)
Answers are plain numbers.

Item under review: CN(Cc1ccccc1)CN1C(=O)C(=NNC(=O)c2ccccc2OCc2ccccc2)c2ccccc21 . Reported solubility (mole fraction)?
1.5e-06
